Form field: protein stability index (one value per entry).
- Test description: protein stability index of a GFP-peptide fusion (yeast GPS) (PSI 1-4); higher = more stable; sorted into four equal gates, so the index is relative within each strain
- Test parameters: san1∆

The following sequences have reported results that may help.
PEEATTIFSVMVEWLES [PRP8] | 1.28
MAGSQFENGNITGEDEV [RRP45] | 3.13
GAINVANCQRQLTEFWT [NNF1] | 2.71
KSTDNSAIRQVFERFKT [IRR1] | 2.19
KRQLIKERNQKFQLQNQ [YIL149C/MLP2] | 2.99

Name the reported protein stability index value associated with the sequence FSKIAEYYRIQKQLPQK [ESC2]
3.26

Name the reported protein stability index value associated with the sequence GLFGANSNSNSGSLFGS [YGL172W/NUP49]
1.05

---

- Test description: protein stability index of a GFP-peptide fusion (yeast GPS) (PSI 1-4); higher = more stable; sorted into four equal gates, so the index is relative within each strain
- Test parameters: ubr1∆
Form field: protein stability index (one value per entry).
Lab note: jot the number down without any unit.

Name the reported protein stability index value associated with the sequence HFKKPDITVHGEQIIVH [RRP45]
1.4

Name the reported protein stability index value associated with the sequence FKIHTAKVKKTGEFDFE [RPT4]
2.81

Name the reported protein stability index value associated with the sequence SVERGRKRAHSLVSTQS [REC8]
3.16

---

- Test description: protein stability index of a GFP-peptide fusion (yeast GPS) (PSI 1-4); higher = more stable; sorted into four equal gates, so the index is relative within each strain
- Test parameters: ubr1∆
Output yes for protein stability index not less than 3; output no otherwise.

YDPKDALKNACNSIINK [RPB11] | yes

protein stability index >= 3 for KTKEAVAALKAVGAHSD [RPL4A] ?
yes

protein stability index >= 3 for CNERVPLSVATELMNRS [SRP72] ?
no

protein stability index >= 3 for LEQIQVQLKDANSQIQA [YIL149C/MLP2] ?
no

protein stability index >= 3 for SEINEILARNDEEMAVL [SNF2] ?
yes

protein stability index >= 3 for SQSKGTVWSANFEYDLS [YOR098C/NUP1] ?
yes

protein stability index >= 3 for PKVSAGDSGISPEESKA [SIR4] ?
yes

protein stability index >= 3 for ELVETSEVRKAVSIETA [FAS2] ?
no

protein stability index >= 3 for NNSNNNNIIRIQQLISQ [SNF11] ?
no

protein stability index >= 3 for LMETLRTLRRKGDINPE [RPB2] ?
yes

protein stability index >= 3 for YFKSILLNKNTGNNLYD [SWI1] ?
no

protein stability index >= 3 for KDLDGWQVIITDDQGRV [SIR3] ?
yes

protein stability index >= 3 for VQQQQQQQLRNQIQRQQ [SNF5] ?
no

protein stability index >= 3 for QIAKFVVGLGERVSPTD [RPT1] ?
no

---

Form field: protein stability index (one value per entry).
- Test description: protein stability index of a GFP-peptide fusion (yeast GPS) (PSI 1-4); higher = more stable; sorted into four equal gates, so the index is relative within each strain
- Test parameters: pdr5∆
Lab note: jot the number down without any unit.

The following sequences have reported results that may help.
MKHLGRSEGNPVIGVFQ [FAS2] | 2.78
DVTPISMFGSDQKTGRA [RPN4] | 3.11
LPSEDSRAQILQIHSRK [RPT5] | 2.39
SSTLGIDLEDIKEELTK [PCI8] | 3.1
SAEEQLRKIDMLQKKLV [SRB7] | 2.58
EYFGGESPVDVQSQVDS [FAS1] | 3.38

Name the reported protein stability index value associated with the sequence KSLEVVNADTVGKTVKQ [NSL1]
2.99

Name the reported protein stability index value associated with the sequence KSPEQCILRFLQLPIED [SWI3]
2.3
